Measurement protocol: Ratio of itraconazole IC50 to compound IC50 for antiproliferative activity against mouse Ptch+/- p53-/- medulloblastoma cells isolated from allografts in nude Harlan mouse after 96 hrs
Format: functional, Medulloblastoma cell
Endpoint: Ratio IC50
When you answer, write just the number.

Worked examples, 3 molecules total:
CC[C@@H](C)n1ncn(-c2ccc(N3CCN(c4ccc(OC[C@H]5CO[C@@](Cn6cncn6)(c6ccc(Cl)cc6Cl)O5)cc4)CC3)cc2)c1=O : 1.7
CC[C@@H](C)n1ncn(-c2ccc(N3CCN(c4ccc(OC[C@@H]5CO[C@@](Cn6cncn6)(c6ccc(Cl)cc6Cl)O5)cc4)CC3)cc2)c1=O : 1.4
CC[C@H](C)n1ncn(-c2ccc(N3CCN(c4ccc(OC[C@H]5CO[C@](Cn6cncn6)(c6ccc(Cl)cc6Cl)O5)cc4)CC3)cc2)c1=O : 1.3

Turning now to a further record.
[Q] Name the recorded Ratio IC50 of the molecule listed here: `Cn1ncn(-c2ccc(N3CCN(c4ccc(OC[C@@H]5CO[C@@](Cn6cncn6)(c6ccc(Cl)cc6Cl)O5)cc4)CC3)cc2)c1=O`
[A] 2.71
